test system: NCI-H292 lung cancer cells; assay: FDA drug screening, complete media vs cholesterol-free media without statin (TABLE 1); type: cell-based, human; settings: Complete minus Cholesterol-free; greater than 0 enhanced anti-cancer activity, about 0 neutral, below 0 antagonists
Where a name gives a salt, the structure may show the parent alone.
// classify: if (Difference < -0.6) y else n

compound: CN(C)[C@@H]1C(O)=C(C(N)=O)C(=O)[C@@]2(O)C(O)=C3C(=O)c4c(O)cccc4[C@@](C)(O)[C@H]3[C@H](O)[C@@H]12 [Oxytetracycline (hydrochloride)]
assigned-label: y
--
compound: CNCC[C@@H](Oc1ccccc1C)c1ccccc1 [Atomoxetine (hydrochloride)]
assigned-label: y
--
compound: CC[C@H]1OC(=O)[C@H](C)[C@@H](O[C@H]2C[C@@](C)(OC)[C@@H](O)[C@H](C)O2)[C@H](C)[C@@H](O[C@@H]2O[C@H](C)C[C@H](N(C)C)[C@H]2O)[C@](C)(OC)C[C@@H](C)C(=O)[C@H](C)[C@@H](O)[C@]1(C)O [Clarithromycin]
assigned-label: y
--
compound: Cc1ccc2c(c1)c1c(n2CCc2ccc(C)nc2)CCN(C)C1 [Latrepirdine (dihydrochloride)]
assigned-label: n
--
compound: C=C1CC[C@H](O)C/C1=C/C=C1\CCC[C@]2(C)[C@@H]([C@H](C)CCCC(C)(C)O)CC[C@@H]12 [Calcifediol]
assigned-label: n
--
compound: Cc1oc(=O)oc1COC(=O)C1=C([C@H]2CCCO2)S[C@@H]2[C@@H]([C@@H](C)O)C(=O)N12 [Faropenem daloxate]
assigned-label: n

* * *

test system: NCI-H292 lung cancer cells; assay: FDA drug screening, complete media vs cholesterol-free media with simvastatin (TABLE 2); type: cell-based, human; settings: NCI-H292 cells, complete media; FDA drug library screen (TABLE 2)
Where a name gives a salt, the structure may show the parent alone.

compound: CN(C)[C@@H]1C(O)=C(C(N)=O)C(=O)[C@@]2(O)C(O)=C3C(=O)c4c(O)cccc4[C@@](C)(O)[C@H]3C[C@@H]12 [Tetracycline (hydrochloride)]
Complete Media: 0.7002
//
compound: COS(=O)(=O)[O-].C[n+]1c2ccccc2nc2ccccc21 [Phenazine (methylsulfate)]
Complete Media: 0.06209
//
compound: COc1ccc2c(c1)c(CC(=O)O)c(C)n2C(=O)c1ccc(Cl)cc1 [Indomethacin (sodium hydrate)]
Complete Media: 0.911
//
compound: CC(C)C[C@H](NC(=O)[C@H](Cc1ccccc1)NC(=O)c1cnccn1)B(O)O
Complete Media: −0.017
//
compound: Cc1ccc2c(Cl)cc(Cl)c(O)c2n1
Complete Media: 0.007501
//
compound: Cc1cccc([C@H](C)c2cnc[nH]2)c1C [Dexmedetomidine (hydrochloride)]
Complete Media: 1.157

* * *

test system: NCI-H292 lung cancer cells; assay: FDA drug screening, complete media vs cholesterol-free media without statin (TABLE 1); format: cell-based, human; details: NCI-H292 cells, FDA drug library screen, cholesterol-free media without statin
Counter-ions that a name gives are not always drawn.
reported-property: Cholesterol-free

molecule: CO[C@@H]1[C@H](OC(=O)/C=C/C=C/C=C/C=C/C(=O)O)CC[C@]2(CO2)[C@H]1[C@@]1(C)O[C@@H]1CC=C(C)C
reported-property: Cholesterol-free
measured-result: 0.6031
--
molecule: CCN[C@H]1C[C@H](C)S(=O)(=O)c2sc(S(N)(=O)=O)cc21 [Dorzolamide (hydrochloride)]
reported-property: Cholesterol-free
measured-result: 1.045
--
molecule: COC(=O)C1=C(C)NC(C)=C(C(=O)OC(C)(C)CN(C)CCC(c2ccccc2)c2ccccc2)C1c1cccc([N+](=O)[O-])c1 (stereo not shown) [Lercanidipine (hydrochloride)]
reported-property: Cholesterol-free
measured-result: 0.8895
--
molecule: O=c1ccn([C@@H]2O[C@H](COP(=O)([O-])OP(=O)([O-])OP(=O)([O-])OP(=O)([O-])OC[C@H]3O[C@@H](n4ccc(=O)[nH]c4=O)[C@H](O)[C@@H]3O)[C@@H](O)[C@H]2O)c(=O)[nH]1.[Na+].[Na+].[Na+].[Na+] [Diquafosol (tetrasodium)]
reported-property: Cholesterol-free
measured-result: 0.9096
